system: SK-MEL-28; assay: NCI tumour cell line growth inhibition, 48 h
Activity calls are given as the source filed them. Rule as the data show it: active = GI50 up to about 1.1 µM and inactive = higher.
observed.property: GI50

The cases that follow already have their GI50 on record.
| compound | obs.value |
| --- | --- |
| NC(CCP(=O)(O)O)C(=O)O (configuration not stated) | > 100 µM (inactive) |
| CC1=C(/C(C)=N/NC(=O)C(N)=O)Sc2ccccc2N1 | > 100 µM (inactive) |
| CCCCCCCC/C=C\CCCCCCC/C=C1\C[C@](/C=C/C(=O)OC)(CO)OC1=O | 1.6 µM (inactive) |
| Cc1ccc(S[C@@H](C)[C@@](O)(CF)CN(Cc2ccccc2)C(=O)C(F)(F)F)cc1 | > 100 µM (inactive) |
| [O-][S+]1Nc2cccc(C(F)(F)F)c2S1 (configuration not stated) | > 100 µM (inactive) |

Problem: Which GI50 is reported with SK-MEL-28 for this entry: Nc1ncnc2c1ncn2Cc1cccc(CCl)c1 ?
Solution: 19.8 µM (inactive)

Problem: Which GI50 is reported with SK-MEL-28 for this entry: CCCn1cnc2c(SCc3ccc(Cl)cc3)nc(N)nc21 ?
Solution: 29 µM (inactive)

Problem: Which GI50 is reported with SK-MEL-28 for this entry: CC1CN=C(NCc2ccccc2)S1 (configuration not stated) ?
Solution: > 100 µM (inactive)

Problem: Which GI50 is reported with SK-MEL-28 for this entry: Cc1cccc(N/C(=C(/C(Cl)=C(Cl)Cl)[N+](=O)[O-])n2nnc3ccccc32)c1 ?
Solution: 14.9 µM (inactive)

Problem: Which GI50 is reported with SK-MEL-28 for this entry: O=S(=O)(c1ccccc1)n1c2cc3cccnc3nc2c2cccnc21 ?
Solution: > 100 µM (inactive)

Problem: Which GI50 is reported with SK-MEL-28 for this entry: CC1=CCCC2C1(C)CCC(C)C2(C)Cc1cc(O)ccc1O (configuration not stated) ?
Solution: 14.1 µM (inactive)

Problem: Which GI50 is reported with SK-MEL-28 for this entry: N#CC(C#N)=C(N)/C(C#N)=C/c1ccc(O)c(O)c1 ?
Solution: > 100 µM (inactive)

Problem: Which GI50 is reported with SK-MEL-28 for this entry: Cc1cc(C)c(-n2c(C)c(C)c(C#N)c2N)c(C)c1 ?
Solution: 37.1 µM (inactive)

Problem: Which GI50 is reported with SK-MEL-28 for this entry: CC1(C)OC(=O)C(=C2CC(c3ccccc3)c3ccccc32)C(=O)O1 (configuration not stated) ?
Solution: > 100 µM (inactive)

Problem: Which GI50 is reported with SK-MEL-28 for this entry: C/C(Sc1ccccc1)=C1/CCCN(Cc2ccccc2)C1 ?
Solution: 23.8 µM (inactive)

Problem: Which GI50 is reported with SK-MEL-28 for this entry: COC(=O)C1N=CSCC1(C)O (configuration not stated) ?
Solution: > 100 µM (inactive)

Problem: Which GI50 is reported with SK-MEL-28 for this entry: COc1cc(C(=O)C/C(CCC(=O)Nc2ccccc2[N+](=O)[O-])=N\NC(N)=O)ccc1O ?
Solution: > 100 µM (inactive)

Problem: Which GI50 is reported with SK-MEL-28 for this entry: O=C(c1cccs1)N(C(=O)N1CCCCC1)c1ccccc1 ?
Solution: > 100 µM (inactive)

Problem: Which GI50 is reported with SK-MEL-28 for this entry: Cc1cn(C2CC(N(C)C)C(CO)O2)c(=O)[nH]c1=O (configuration not stated) ?
Solution: > 100 µM (inactive)

Problem: Which GI50 is reported with SK-MEL-28 for this entry: CC(=O)Nc1nc(C)c(S(=O)(=O)NC(=O)N2c3ccccc3CCc3ccccc32)s1 ?
Solution: > 100 µM (inactive)

Problem: Which GI50 is reported with SK-MEL-28 for this entry: CC(C)(C)OC(=O)NCC(=O)N1CCN(C(=O)CNC(=O)OC(C)(C)C)CC1 ?
Solution: > 100 µM (inactive)

Problem: Which GI50 is reported with SK-MEL-28 for this entry: COc1cc2c(cc1OC)C(=O)/C(=C/c1cc(Cl)cc(Cl)c1)C2 ?
Solution: 61.7 µM (inactive)

Problem: Which GI50 is reported with SK-MEL-28 for this entry: COc1cc(C2c3cc4c(cc3C(O)C3CCC(=O)N23)OCO4)cc(OC)c1OC (configuration not stated) ?
Solution: 16.8 µM (inactive)

Problem: Which GI50 is reported with SK-MEL-28 for this entry: COc1cc(C(C)c2cc3c(cc2OCCNC(=O)COc2cc4c(cc2C(C)c2cc(OC)c(OC)c(OC)c2)OCO4)OCO3)cc(OC)c1OC (configuration not stated) ?
Solution: > 100 µM (inactive)

Hello, the source for this data is ChEMBL document CHEMBL1201862, in case you need it.
